Attribute: viability, T/C
Test system: 186277-243-T-J2-PDC complex spheroids, viability
method-description: Anticancer human tumor 186277-243-T-J2-PDC patient-derived colon adenocarcinoma cell line growth inhibition [RAS]
experimental-setup: second compound 0.0316 µM; first compound 0.00949 µM; hits give low values
Provide the reading as a plain figure in %.

I'd like to know its viability, T/C. The compound in question is CC1(C)CCC(Nc2ncc(C(F)(F)F)c(-c3c[nH]c4c(P(C)(C)=O)c(C#N)ccc34)n2)CN1 (centres undefined) + C#Cc1c(F)ccc2cc(O)cc(-c3ncc4c(N5CC6CCC(C5)N6)nc(OCC56CCCN5CC(F)C6)nc4c3F)c12
60.4

Quick one: CCc1c2c(nc3ccc(O)cc13)-c1cc3c(c(=O)n1C2)COC(=O)[C@]3(O)CC + C#Cc1c(F)ccc2cc(O)cc(-c3ncc4c(N5CC6CCC(C5)N6)nc(OCC56CCCN5CC(F)C6)nc4c3F)c12
36.7

Quick one: CCc1c2c(nc3ccc(O)cc13)-c1cc3c(c(=O)n1C2)COC(=O)[C@]3(O)CC + C=CC(=O)N1CCN(c2nc(OCC3CCCN3C)nc3c(F)c(-c4nc(N)cc(C)c4C(F)(F)F)c(Cl)cc23)C(C)C1
68.7

Quick one: CC1(C)CCC(Nc2ncc(C(F)(F)F)c(-c3c[nH]c4c(P(C)(C)=O)c(C#N)ccc34)n2)CN1 (centres undefined) + C=CC(=O)N1CCN(c2nc(OCC3CCCN3C)nc3c(F)c(-c4nc(N)cc(C)c4C(F)(F)F)c(Cl)cc23)C(C)C1
135

###

Test system: 186277-243-T-J2-PDC complex spheroids, viability
method-description: Anticancer human tumor 186277-243-T-J2-PDC cell line growth inhibition [RAS]; active = viability on the fitted dose curve at most 10% of control; inactive = the rest;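 further: spheroids exposed to compounds for 7 days before viability read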
experimental-setup: second compound 0.1 µM; first compound 1 µM
Permitted responses: active, inactive

# compound, discrete-label
measured = [
    ("C=CC(=O)Nc1cc(Nc2nccc(-c3cn(C)c4ccccc34)n2)c(OC)cc1N(C)CCN(C)C + C#Cc1c(F)ccc2cc(O)cc(-c3ncc4c(N5CC6CCC(C5)N6)nc(OCC56CCCN5CC(F)C6)nc4c3F)c12", "inactive"),
    ("CCN1CCN(Cc2ccc(Nc3ncc(F)c(-c4cc(F)c5nc(C)n(C(C)C)c5c4)n3)nc2)CC1 + C#Cc1c(F)ccc2cc(O)cc(-c3ncc4c(N5CC6CCC(C5)N6)nc(OCC56CCCN5CC(F)C6)nc4c3F)c12", "inactive"),
    ("CC1(O)CCCC1n1c(=O)c(C(F)F)cc2cnc(NC3CCN(S(C)(=O)=O)CC3)nc21 (stereo unspecified) + C#Cc1c(F)ccc2cc(O)cc(-c3ncc4c(N5CC6CCC(C5)N6)nc(OCC56CCCN5CC(F)C6)nc4c3F)c12", "inactive"),
    ("Cc1nc(N2CCC3(CC2)COC(C)C3N)c(CO)nc1Sc1ccnc(N)c1Cl (stereo unspecified) + C=CC(=O)N1CCN(c2nc(OCC3CCCN3C)nc3c(F)c(-c4nc(N)cc(C)c4C(F)(F)F)c(Cl)cc23)C(C)C1", "inactive"),
    ("CC(C)NCC(C(=O)N1CCN(c2ncnc3c2C(C)CC3O)CC1)c1ccc(Cl)cc1 (stereo unspecified) + C=CC(=O)N1CCN(c2nc(OCC3CCCN3C)nc3c(F)c(-c4nc(N)cc(C)c4C(F)(F)F)c(Cl)cc23)C(C)C1", "inactive"),
    ("CC(Nc1ccc2c(c1)OCCn1cc(N3C(=O)OCC3C(F)F)nc1-2)C(N)=O (stereo unspecified) + C=CC(=O)N1CCN(c2nc(OCC3CCCN3C)nc3c(F)c(-c4nc(N)cc(C)c4C(F)(F)F)c(Cl)cc23)C(C)C1", "inactive"),
    ("O=C(c1ccc(F)c(F)c1Nc1ccc(I)cc1F)N1CC(O)([C@@H]2CCCCN2)C1 + C#Cc1c(F)ccc2cc(O)cc(-c3ncc4c(N5CC6CCC(C5)N6)nc(OCC56CCCN5CC(F)C6)nc4c3F)c12", "active"),
    ("NC1c2ccccc2OC12CCN(c1cnc3c(N4CCCc5ncccc54)n[nH]c3n1)CC2 (stereo unspecified) + C=CC(=O)N1CCN(c2nc(OCC3CCCN3C)nc3c(F)c(-c4nc(N)cc(C)c4C(F)(F)F)c(Cl)cc23)C(C)C1", "inactive"),
]

Record request — test call for CC(C)NCC(C(=O)N1CCN(c2ncnc3c2C(C)CC3O)CC1)c1ccc(Cl)cc1 (stereo unspecified) + C#Cc1c(F)ccc2cc(O)cc(-c3ncc4c(N5CC6CCC(C5)N6)nc(OCC56CCCN5CC(F)C6)nc4c3F)c12
active

Quick one: C=CC(=O)Nc1cc(Nc2nccc(-c3cn(C)c4ccccc34)n2)c(OC)cc1N(C)CCN(C)C + C=CC(=O)N1CCN(c2nc(OCC3CCCN3C)nc3c(F)c(-c4nc(N)cc(C)c4C(F)(F)F)c(Cl)cc23)C(C)C1
inactive

Quick one: C[C@@H](NC(=O)c1ncnc(N)c1Cl)c1ncc(C(=O)Nc2cc(C(F)(F)F)c(Cl)cn2)s1 + C=CC(=O)N1CCN(c2nc(OCC3CCCN3C)nc3c(F)c(-c4nc(N)cc(C)c4C(F)(F)F)c(Cl)cc23)C(C)C1
inactive

###

Attribute: viability, T/C
System: 186277-243-T-J2-PDC complex spheroids, viability
method-description: Anticancer human tumor 186277-243-T-J2-PDC cell line growth inhibition [RAS];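 further: spheroids exposed to compounds for 7 days before viability read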
experimental-setup: second compound 0.0316 µM; first compound 0.0949 µM; hits give low values
Provide the reading as a plain figure in %.

Before answering, review these 3 worked examples.
# molecule, target-or-system, test-value
measured = [
    ("CC1(C)CCC(Nc2ncc(C(F)(F)F)c(-c3c[nH]c4c(P(C)(C)=O)c(C#N)ccc34)n2)CN1 (centres undefined) + C=CC(=O)N1CCN(c2nc(OCC3CCCN3C)nc3c(F)c(-c4nc(N)cc(C)c4C(F)(F)F)c(Cl)cc23)C(C)C1", "186277-243-T-J2-PDC complex spheroids, viability", 66.7),
    ("CCc1c2c(nc3ccc(O)cc13)-c1cc3c(c(=O)n1C2)COC(=O)[C@]3(O)CC + C#Cc1c(F)ccc2cc(O)cc(-c3ncc4c(N5CC6CCC(C5)N6)nc(OCC56CCCN5CC(F)C6)nc4c3F)c12", "186277-243-T-J2-PDC complex spheroids, viability", 8.73),
    ("CC1(C)CCC(Nc2ncc(C(F)(F)F)c(-c3c[nH]c4c(P(C)(C)=O)c(C#N)ccc34)n2)CN1 (centres undefined) + C#Cc1c(F)ccc2cc(O)cc(-c3ncc4c(N5CC6CCC(C5)N6)nc(OCC56CCCN5CC(F)C6)nc4c3F)c12", "186277-243-T-J2-PDC complex spheroids, viability", 51.8),
]

I'd like to know its viability, T/C. The molecule in question is CCc1c2c(nc3ccc(O)cc13)-c1cc3c(c(=O)n1C2)COC(=O)[C@]3(O)CC + C=CC(=O)N1CCN(c2nc(OCC3CCCN3C)nc3c(F)c(-c4nc(N)cc(C)c4C(F)(F)F)c(Cl)cc23)C(C)C1
21.8

###

System: 186277-243-T-J2-PDC complex spheroids, viability
method-description: Anticancer human tumor 186277-243-T-J2-PDC cell line growth inhibition [RAS];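 further: spheroids exposed to compounds for 7 days before viability read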
experimental-setup: second compound 3.16 µM; first compound 1 µM; hits give low values
Attribute: viability, T/C
Provide the reading as a plain figure in %.

Before answering, review these 2 worked examples.
# molecule, test-value
data = [
    ("CCC(CC)c1cc(NC2CCC(N)C2)n2nccc2n1 (stereo not drawn) + C#Cc1c(F)ccc2cc(O)cc(-c3ncc4c(N5CC6CCC(C5)N6)nc(OCC56CCCN5CC(F)C6)nc4c3F)c12", 10.1),
    ("O=C(c1ccc(F)c(F)c1Nc1ccc(I)cc1F)N1CC(O)([C@@H]2CCCCN2)C1 + C#Cc1c(F)ccc2cc(O)cc(-c3ncc4c(N5CC6CCC(C5)N6)nc(OCC56CCCN5CC(F)C6)nc4c3F)c12", 3.32),
]

Consider the additional molecule presented here.
# query: viability, T/C | item NC1c2ccccc2OC12CCN(c1cnc3c(N4CCCc5ncccc54)n[nH]c3n1)CC2 (stereo not drawn) + C#Cc1c(F)ccc2cc(O)cc(-c3ncc4c(N5CC6CCC(C5)N6)nc(OCC56CCCN5CC(F)C6)nc4c3F)c12 | system: 186277-243-T-J2-PDC complex spheroids, viability
4.41

###

Test system: 186277-243-T-J2-PDC complex spheroids, viability
method-description: Anticancer human tumor 186277-243-T-J2-PDC cell line growth inhibition [RAS];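 further: spheroids exposed to compounds for 7 days before viability read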
experimental-setup: second compound 0.03 µM; first compound 10 µM; hits give low values
Attribute: viability, T/C
Provide the reading as a plain figure in %.

Before answering, review these 4 worked examples.
# compound, output-unit, viability, T/C
measured = [
    ("NC1c2ccccc2OC12CCN(c1cnc3c(N4CCCc5ncccc54)n[nH]c3n1)CC2 (stereo unspecified) + CCn1c(-c2cc(N3CCN(C)CC3)cnc2C(C)OC)c2c3cc(ccc31)-c1csc(n1)CC(NC(=O)C1CC1C)C(=O)N1CCCC(N1)C(=O)OCC(C)(C)C2", "%", 1.52),
    ("CC1(O)CCCC1n1c(=O)c(C(F)F)cc2cnc(NC3CCN(S(C)(=O)=O)CC3)nc21 (stereo unspecified) + CCn1c(-c2cc(N3CCN(C)CC3)cnc2C(C)OC)c2c3cc(ccc31)-c1csc(n1)CC(NC(=O)C1CC1C)C(=O)N1CCCC(N1)C(=O)OCC(C)(C)C2", "%", 0.34),
    ("CC(Nc1ccc2c(c1)OCCn1cc(N3C(=O)OCC3C(F)F)nc1-2)C(N)=O (stereo unspecified) + CCn1c(-c2cccnc2C(C)OC)c2c3cc(ccc31)N1CCOC(CC(NC(=O)C(C(C)C)N(C)C(=O)C3(F)CCN(C(=O)C#CC(C)(C)N(C)C)CC3)C(=O)N3CCCC(N3)C(=O)OCC(C)(C)C2)C1", "%", 17.6),
    ("Cc1nc(N2CCC3(CC2)COC(C)C3N)c(CO)nc1Sc1ccnc(N)c1Cl (stereo unspecified) + CCn1c(-c2cccnc2C(C)OC)c2c3cc(ccc31)N1CCOC(CC(NC(=O)C(C(C)C)N(C)C(=O)C3(F)CCN(C(=O)C#CC(C)(C)N(C)C)CC3)C(=O)N3CCCC(N3)C(=O)OCC(C)(C)C2)C1", "%", 116),
]

I'd like to know its viability, T/C. The compound in question is CCC(CC)c1cc(NC2CCC(N)C2)n2nccc2n1 (stereo unspecified) + CCn1c(-c2cccnc2C(C)OC)c2c3cc(ccc31)N1CCOC(CC(NC(=O)C(C(C)C)N(C)C(=O)C3(F)CCN(C(=O)C#CC(C)(C)N(C)C)CC3)C(=O)N3CCCC(N3)C(=O)OCC(C)(C)C2)C1
0.35

Quick one: NC1c2ccccc2OC12CCN(c1cnc3c(N4CCCc5ncccc54)n[nH]c3n1)CC2 (stereo unspecified) + CCn1c(-c2cccnc2C(C)OC)c2c3cc(ccc31)N1CCOC(CC(NC(=O)C(C(C)C)N(C)C(=O)C3(F)CCN(C(=O)C#CC(C)(C)N(C)C)CC3)C(=O)N3CCCC(N3)C(=O)OCC(C)(C)C2)C1
76
